protocol-description: in vitro
protocol-conditions: Nanoclick permeability assay EC50
Experimental: Further, there have been several literature reports[18]–[20] that highlight that the combination of hydrophobic character and positive charge can result in mast cell degranulation (MCD), a potentially fatal condition[18]–[20]. […] This assay was previously described in detail. […] Following addition of NanoBRET Nano-Glo Substrate, donor emission (450 nm) and acceptor emission (610 nm) were measured using an Envision instrument (PerkinElmer).
Positions of bridges follow the written chain, without caps; N, C: chain ends. Non-standard residues stand in square brackets, D forms with d. Residues, ends and D or L forms follow the SMILES beside them. Lys(N3) = [N-]=[N+]=NCCCC[C@H](N)C(=O)O; R8 = C=CCCCCCC[C@@](C)(N)C(=O)O; Cba = N[C@@H](CC1CCC1)C(=O)O; S5 = C=CCCC[C@](C)(N)C(=O)O; βAla = NCCC(=O)O
assay-metric: cell entry EC50 (µM)
One number for each entry, in µM.

Look up cell entry EC50: CC(=O)N[C@@H](CCCCN=[N+]=[N-])C(=O)NCCC(=O)N[C@@H](CC(C)C)C(=O)N[C@H](C(=O)N[C@@H](Cc1ccccc1)C(=O)N[C@]1(C)CCCCCCC=CCCC[C@@](C)(C(=O)N2CCC[C@H]2C(=O)N[C@@H](C)C(=O)N[C@@H](C)C(N)=O)NC(=O)[C@H](CC2CCC2)NC(=O)[C@H](CCC(N)=O)NC(=O)[C@H](C)NC(=O)[C@H](Cc2c[nH]c3ccccc23)NC(=O)[C@H](Cc2ccc(O)cc2)NC(=O)[C@H](CCC(=O)O)NC1=O)[C@@H](C)O [MP-184] (Ac-[Lys(N3)][βAla]LTF[R8]EYWAQ[Cba][S5]PAA-NH2; staple 6-13)
0.36

---

protocol-description: Solubility assay (kinetic solubility, PBS pH 7)
Assay type: physicochemical
protocol-conditions: pH 7, aqueous buffer, kinetic from dmso stock, pH 7, PBS; read-out: Solubility
Method: The standard reference solutions were prepared by diluting the 10 mM stock in 10:80:10 solution of acetonitrile:methanol:DMSO to 100 µM. The solubility value is calculated by the following equation: Solubility [µM] = (Peak area of sample/ Peak area of standard) (Standard concentration)
assay-metric: solubility kinetic
Could you give the number and then its unit, please?

Record request: solubility kinetic value, item CC(=O)N[C@@H](CCCCN=[N+]=[N-])C(=O)NCCC(=O)N[C@H](C)C(=O)N[C@H](C(=O)N[C@@H](Cc1ccccc1)C(=O)N[C@]1(C)CCCCCCC=CCCC[C@@](C)(C(=O)N[C@@H](CO)C(=O)N[C@@H](C)C(=O)N[C@@H](C)C(N)=O)NC(=O)[C@H](CC2CCC2)NC(=O)[C@H](CCC(N)=O)NC(=O)[C@H](C)NC(=O)[C@H](Cc2c[nH]c3ccccc23)NC(=O)[C@H](Cc2ccc(O)cc2)NC(=O)[C@H](CCC(=O)O)NC1=O)[C@@H](C)O [MP-7470]
90 µM

---

I'd be grateful if you could share measured pEC50 for these entries.
protocol-description: Lactate dehydrogenase (LDH) release assay
Type: cell-based
protocol-conditions: LDH: Cytotoxicity assay: EC50
pEC50: −log10 of the molar value. Positions of bridges follow the written chain, without caps; N, C: chain ends. Non-standard residues stand in square brackets, D forms with d. Residues, ends and D or L forms follow the SMILES beside them. R8 = C=CCCCCCC[C@@](C)(N)C(=O)O; Cba = N[C@@H](CC1CCC1)C(=O)O; S5 = C=CCCC[C@](C)(N)C(=O)O

Hi team, please reply with pEC50 for each item in this list.
1. CC(=O)N[C@@H](CCCCN=[N+]=[N-])C(=O)NCCC(=O)N[C@@H](CC(C)C)C(=O)N[C@H](C(=O)N[C@@H](CCC(=O)O)C(=O)N[C@]1(C)CCCCCCC=CCCC[C@@](C)(C(=O)N[C@@H](CO)C(=O)N[C@@H](C)C(=O)N[C@@H](C)C(N)=O)NC(=O)[C@H](CC2CCC2)NC(=O)[C@H](CCC(N)=O)NC(=O)[C@H](C)NC(=O)[C@H](Cc2c[nH]c3ccccc23)NC(=O)[C@H](Cc2ccc(O)cc2)NC(=O)[C@H](CCC(=O)O)NC1=O)[C@@H](C)O [MP-843]
2. CC(=O)N[C@@H](CC(C)C)C(=O)N[C@H](C(=O)N[C@@H](Cc1ccccc1)C(=O)N[C@]1(C)CCCCCCC=CCCC[C@@](C)(C(=O)N[C@@H](CO)C(=O)N[C@@H](C)C(=O)N[C@@H](C)C(N)=O)NC(=O)[C@H](CC2CCC2)NC(=O)[C@H](C)NC(=O)[C@H](C)NC(=O)[C@H](Cc2c[nH]c3ccccc23)NC(=O)[C@H](Cc2ccc(O)cc2)NC(=O)[C@H](CCC(=O)O)NC1=O)[C@@H](C)O [MP-865] (Ac-LTF[R8]EYWAA[Cba][S5]SAA-NH2; staple 4-11)

< 4.29
< 4.30
